# Assay Method Text: Microscope observation of taurine crystals (Test Example 1)
# Format: physicochemical
# Condition Set: observed with a microscope
Measurement Type: Crystalline form

Compound: NCCS(=O)(=O)O [Comparative Example 2, taurine]
Recorded Measurement: Massive
//
Compound: NCCS(=O)(=O)O [Example 1, taurine]
Recorded Measurement: Columnar
//
Compound: NCCS(=O)(=O)O [Example 5, taurine]
Recorded Measurement: Needle-
//
Compound: NCCS(=O)(=O)O [Example 7, taurine]
Recorded Measurement: Needle-
//
Compound: NCCS(=O)(=O)O [Example 3, taurine]
Recorded Measurement: Columnar
//
Compound: NCCS(=O)(=O)O [Example 6, taurine]
Recorded Measurement: Needle-
//
Compound: NCCS(=O)(=O)O [Comparative Example 3, taurine, reference compound]
Recorded Measurement: Massive
//
Compound: NCCS(=O)(=O)O [Example 11, taurine]
Recorded Measurement: Needle-

###

# Assay Method Text: Microscope observation of taurine crystals (Test Example 1)
# Type: physicochemical
# Condition Set: observed with a microscope; thickness = minor axis
The entries below are paired with their reported Maximum particle size (thickness) μm.

Compound: NCCS(=O)(=O)O [Example 11, taurine]
Measurement Unit: μm
Maximum particle size (thickness) μm: 20
//
Compound: NCCS(=O)(=O)O [Comparative Example 3, taurine, reference compound]
Measurement Unit: μm
Maximum particle size (thickness) μm: 1680
//
Compound: NCCS(=O)(=O)O [Example 4, taurine]
Measurement Unit: μm
Maximum particle size (thickness) μm: 70
//
Compound: NCCS(=O)(=O)O [Example 6, taurine]
Measurement Unit: μm
Maximum particle size (thickness) μm: 25
//
Compound: NCCS(=O)(=O)O [Comparative Example 2, taurine]
Measurement Unit: μm
Maximum particle size (thickness) μm: 300
//
Compound: NCCS(=O)(=O)O [Comparative Example 1, taurine]
Measurement Unit: μm
Maximum particle size (thickness) μm: 160
//
Compound: NCCS(=O)(=O)O [Example 7, taurine]
Measurement Unit: μm
Maximum particle size (thickness) μm: 20
//
Compound: NCCS(=O)(=O)O [Example 3, taurine]
Measurement Unit: μm
Maximum particle size (thickness) μm: 100
//
Compound: NCCS(=O)(=O)O [Example 2, taurine]
Measurement Unit: μm
Maximum particle size (thickness) μm: 80
//
Compound: NCCS(=O)(=O)O [Example 8, taurine]
Measurement Unit: μm
Maximum particle size (thickness) μm: 30
//
Compound: NCCS(=O)(=O)O [Example 9, taurine]
Measurement Unit: μm
Maximum particle size (thickness) μm: 40
//
Compound: NCCS(=O)(=O)O [Example 1, taurine]
Measurement Unit: μm
Maximum particle size (thickness) μm: 145
//
Compound: NCCS(=O)(=O)O [Example 10, taurine]
Measurement Unit: μm
Maximum particle size (thickness) μm: 25
//
Compound: NCCS(=O)(=O)O [Example 5, taurine]
Measurement Unit: μm
Maximum particle size (thickness) μm: 55

###

# Assay Method Text: Microscope observation of taurine crystals (Test Example 1)
# Assay type: physicochemical
# Condition Set: observed with a microscope
Measurement Type: Crystalline form

Molecule: NCCS(=O)(=O)O [Example 4, taurine]
Recorded Measurement: Columnar

Molecule: NCCS(=O)(=O)O [Example 10, taurine]
Recorded Measurement: Needle-

Molecule: NCCS(=O)(=O)O [Example 9, taurine]
Recorded Measurement: Needle-

Molecule: NCCS(=O)(=O)O [Example 2, taurine]
Recorded Measurement: Columnar

Molecule: NCCS(=O)(=O)O [Example 8, taurine]
Recorded Measurement: Needle-
